# Target: T1, human connexin43 (Cx43) (human, UniProt P17302 2-382)
# T1 construct: whole, on cells; Hemichannel expressed in HEK 293FT cells for FETCH; also called GJA1; not shown: C-terminal fluorescent protein fusion (mEmerald or RFP670 in FETCH)
# T1 sequence (P17302 2-382): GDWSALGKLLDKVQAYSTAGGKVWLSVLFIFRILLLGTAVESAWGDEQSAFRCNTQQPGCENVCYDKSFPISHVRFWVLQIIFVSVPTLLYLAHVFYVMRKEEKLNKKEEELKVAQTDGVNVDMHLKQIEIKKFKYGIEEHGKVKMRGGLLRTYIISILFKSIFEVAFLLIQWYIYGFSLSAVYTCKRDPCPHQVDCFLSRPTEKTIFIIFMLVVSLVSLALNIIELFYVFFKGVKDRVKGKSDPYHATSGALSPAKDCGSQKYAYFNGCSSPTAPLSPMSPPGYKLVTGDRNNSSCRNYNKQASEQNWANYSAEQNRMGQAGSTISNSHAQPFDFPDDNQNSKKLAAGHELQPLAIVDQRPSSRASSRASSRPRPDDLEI
# Experiment notes: heterotypic FETCH
# Excerpt: Complete FETCH methodology is outlined in Ransey et. al. 2021 (Ransey E, et al. (2021) BioRxiv). Briefly, replica multi-well plates with HEK 293FT cells were transfected with either of the two connexin proteins being evaluated for docking. […] Co-plated samples were trypsinized, fixed in suspension and analyzed via flow cytometry. Flow cytometry data was processed with two selection gates prior to their fluorescence evaluation. […]
Measure: binding result

Input Cx35E224H (Morone americana Cx35 mutant E224H) (other, Extracellular loop mutant of the screening library; not shown: C-terminal fluorescent protein fusion (mEmerald or RFP670 in FETCH)) MGEWTILERLLEAAVQQHSTMIGRILLTVVVIFRILIVAIVGETVYDDEQTMFVCNTLQPGCNQACYDKAFPISHIRYWVFQIIMVCTPSLCFITYSVHQSAKQKERRYSTVYLTLDKDQDSLKRDESKKIKNTIVNGVLQNTENSTKEAEPDCLEVKEIPNSAMRTTKSKMRRQEGISRFYIIQVVFRNALEIGFLVGQYFLYGFNVPSVYECDRYPCIKDVHCYVSRPTEKTVFLVFMFAVSGFCVVLNLAELNHLGWRKIKTAVRGVQARRKSIYEIRNKDLPRMSVPNFGRTQSSDSAYV , output reported binding result.
no binding

Input Cx34.7K222Q (Morone americana Cx34.7 mutant K222Q) (other, Extracellular loop mutant of the screening library; not shown: C-terminal fluorescent protein fusion (mEmerald or RFP670 in FETCH)) MGEWTILERLLEAAVQQHSTMIGRILLTVVVIFRILIVAIVGETVYEDEQAMFICNTLQPGCNQACYDKAFPISHIRYWVFQIILVCTPSLCFITYSVHQSAKQKDRRYSFLYPIMERDYGGRDGARKLRNINGILVQHGGDGGGGKEEPDCLEVKEIPNAPRGLTHGKSSKVRRQEGISRFYIIQVVFRNALEIGFLAGQYFLYGFSVPGIFECDRYPCLQEVECYVSRPTEKTVFLVFMFAVSGICVVLNLAELNHLGWRKIKAAIRGVQARRKSICEIRKKDMAHLSQPPNLGRTQSSESAYV , output reported binding result.
no binding

The reported measurements were obtained from patent US20250186620A1.
